Measured EC50 of individual entries
- Tested on: rLCMV/GFP-P2A-NP
- test_method_notes: organism not typed
- Format: cell-based, LCMV
- condition_parameters: Hec50, read-out: EC50, LCMV multiplication (GFP expression)

Some molecules with recorded EC50:
- molecule: "CN1CC(=O)N2[C@H](c3ccc4c(c3)OCO4)c3[nH]c4ccccc4c3C[C@@H]2C1=O [TAD, tadalafil]"
  reported_value: "> 100 µM"
- molecule: "C=C1CC[C@H](O)C/C1=C/C=C1\\CCC[C@]2(C)[C@@H]([C@H](C)/C=C/[C@H](C)C(C)C)CC[C@@H]12 [Vit D, ergocalciferol]"
  reported_value: "> 100 µM"

Query for rLCMV/GFP-P2A-NP: what EC50 does the record show for OC(c1cc(C(F)(F)F)nc2c(C(F)(F)F)cccc12)C1CCCCN1 (stereo not drawn) [MEF, mefloquine] ?
15.5 µM

###

- Test system: Vero cells
- condition_parameters: African green monkey
value_type: CC50 (µM)
Write it as a number; the unit µM goes unstated.

For the molecule OC(c1cc(C(F)(F)F)nc2c(C(F)(F)F)cccc12)C1CCCCN1 (stereo not shown) [MEF, mefloquine] , what CC50 is on record?
27.3

###

Entries annotated with measured CC50
- test_method_notes: in vitro
- condition_parameters: African green monkey, CC50 (CellTiter 96 Aqueous One)

// below: answered compounds
- sample_smiles: "C=C1CC[C@H](O)C/C1=C/C=C1\\CCC[C@]2(C)[C@@H]([C@H](C)/C=C/[C@H](C)C(C)C)CC[C@@H]12"
  CC50: "> 100 µM"
- sample_smiles: "Fc1ccc(C(c2ccc(F)cc2)N2CCN(C/C=C/c3ccccc3)CC2)cc1"
  CC50: "> 100 µM"

Need CC50 of `CN1CC(=O)N2[C@H](c3ccc4c(c3)OCO4)c3[nH]c4ccccc4c3C[C@@H]2C1=O` , thanks.
> 100 µM

// provenance: paper PMC11768584
